B1: TPR t1 (parent)
chain: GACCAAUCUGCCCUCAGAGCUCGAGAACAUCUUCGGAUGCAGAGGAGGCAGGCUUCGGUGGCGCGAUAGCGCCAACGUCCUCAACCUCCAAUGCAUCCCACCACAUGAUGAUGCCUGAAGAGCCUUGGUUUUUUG

- Variants of: B1
- Test details: polymerase ribozyme fitness, log enrichment relative to wild type (log ratio); higher = more active; in vitro selection for triplet polymerase activity
Please provide measured polymerase ribozyme fitness (log ratio) for the entries that follow.
Write the value as a bare number.

Exam item: So what's the measured polymerase ribozyme fitness (log ratio) for this one? A37C G93A
Marked response: -0.971

Exam item: Reported polymerase ribozyme fitness (log ratio) for C28A C72G : what is it?
Marked response: -2.92

Exam item: I am curious: what polymerase ribozyme fitness (log ratio) value has been reported for U78G A111U U131A ?
Marked response: -2.99
